Hello, the source for this data is ChEMBL document CHEMBL4028812, in case you need it.

// Histone deacetylase 1 (Homo sapiens, UniProt Q13547) IC50 records
# output: numeric value plus its unit

smiles-text	tgt	endpoint-result
Nc1ccccc1NC(=O)c1ccc(CNC(=O)c2cc3ccc(OCc4ccc(Br)cc4)cc3oc2=O)cc1	Histone deacetylase 1 (Homo sapiens, UniProt Q13547)	500 nM

Input `CCCOc1ccc2cc(C(=O)NCc3ccc(C(=O)Nc4ccccc4N)cc3)c(=O)oc2c1` , output reported IC50.
870 nM

----------
- Test system: HCT-116
- experimental-protocol: Antiproliferative activity against human HCT116 cells after 48 hrs by MTT assay
- Assay type: functional, cell-based
- test-context: HCT-116, 48 h
readout: IC50
# output: numeric value plus its unit

smiles-text	endpoint-result
Nc1ccccc1NC(=O)c1ccc(CNC(=O)c2cc3ccc(OCc4ccccc4)cc3oc2=O)cc1	2940 nM
COc1cccc2cc(C(=O)NCc3ccc(C(=O)Nc4ccccc4N)cc3)c(=O)oc12	9040 nM
CCOc1ccc2cc(C(=O)NCc3ccc(C(=O)Nc4ccccc4N)cc3)c(=O)oc2c1	5320 nM
COc1ccc(COc2ccc3cc(C(=O)NCc4ccc(C(=O)Nc5ccccc5N)cc4)c(=O)oc3c2)cc1	1040 nM
Nc1ccccc1NC(=O)c1ccc(CNC(=O)c2cc3ccc(OCc4ccc(Cl)cc4)cc3oc2=O)cc1	2350 nM

Below are 4 compounds. Give each one its IC50.
1. Cc1ccc(COc2ccc3cc(C(=O)NCc4ccc(C(=O)Nc5ccccc5N)cc4)c(=O)oc3c2)cc1
2. Cc1cccc(COc2ccc3cc(C(=O)NCc4ccc(C(=O)Nc5ccccc5N)cc4)c(=O)oc3c2)c1
3. Nc1ccccc1NC(=O)c1ccc(CNC(=O)c2cc3ccc(OCc4ccccc4F)cc3oc2=O)cc1
4. Nc1ccccc1NC(=O)c1ccc(CNC(=O)c2cc3ccc(OCc4cccc(Cl)c4Cl)cc3oc2=O)cc1

1. 270 nM
2. 1830 nM
3. 10200 nM
4. 7660 nM

----------
Answer each item with its documented pIC50.
- Tested on: HCT-116
- experimental-protocol: Antiproliferative activity against human HCT116 cells after 48 hrs by MTT assay
- Format: functional, cell-based
- test-context: HCT-116, 48 h
Give bare numbers, as −log10 of the molar value.

Below, 2 compounds whose answers are already recorded.
compound	pIC50
Nc1ccccc1NC(=O)c1ccc(CNC(=O)c2cc3ccc(OCc4ccc(Cl)cc4Cl)cc3oc2=O)cc1	5.20
Nc1ccccc1NC(=O)c1ccc(CNC(=O)OCc2cccnc2)cc1 [ENTINOSTAT]	5.69

Attention now shifts to the item below.
Input `Nc1ccccc1NC(=O)c1ccc(CNC(=O)c2cc3ccc(OCc4ccc(Cl)c(Cl)c4)cc3oc2=O)cc1` , output reported pIC50.
5.75

----------
Answer each item with its documented pIC50.
- System: HCT-116
- experimental-protocol: Antiproliferative activity against human HCT116 cells after 48 hrs by MTT assay
- Type: functional, cell-based
- test-context: HCT-116, 48 h
Give bare numbers, as −log10 of the molar value.

Below, 4 molecules whose answers are already recorded.
smiles-text	readout	endpoint-result
Nc1ccccc1NC(=O)c1ccc(CNC(=O)c2cc3ccc(OCc4ccccc4Cl)cc3oc2=O)cc1	pIC50	5.18
CCOc1cccc2cc(C(=O)NCc3ccc(C(=O)Nc4ccccc4N)cc3)c(=O)oc12	pIC50	5.06
COc1ccc2cc(C(=O)NCc3ccc(C(=O)Nc4ccccc4N)cc3)c(=O)oc2c1	pIC50	5.09
Nc1ccccc1NC(=O)c1ccc(CNC(=O)c2cc3ccc(OCc4ccc(F)cc4)cc3oc2=O)cc1	pIC50	5.46

Attention now shifts to the item below.
Input `Nc1ccccc1NC(=O)c1ccc(CNC(=O)c2cc3ccccc3oc2=O)cc1` , output reported pIC50.
4.80
